Molecular target: Adenosine receptor A3 (Homo sapiens) (UniProt P0DMS8)
Sequence (P0DMS8 whole entry): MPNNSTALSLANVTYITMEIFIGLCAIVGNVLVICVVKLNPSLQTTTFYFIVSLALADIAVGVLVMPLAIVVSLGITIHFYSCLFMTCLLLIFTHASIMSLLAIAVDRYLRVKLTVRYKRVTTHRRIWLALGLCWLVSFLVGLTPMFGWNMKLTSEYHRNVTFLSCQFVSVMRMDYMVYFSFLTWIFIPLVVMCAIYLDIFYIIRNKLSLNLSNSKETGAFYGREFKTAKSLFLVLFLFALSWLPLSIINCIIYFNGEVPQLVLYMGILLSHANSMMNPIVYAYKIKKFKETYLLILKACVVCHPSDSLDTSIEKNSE
Assay: Maximum efficacy at human recombinant adenosine A3 receptor expressed in CHO cells assessed as inhibition of cAMP production at 10 uM relative to NECA
Format: functional, cell-based
Listed next: entries and their corresponding Efficacy.
attribute measured: Efficacy (%)

1) Nc1nc(OCCc2c[nH]c3ccc(Cl)cc23)nc2c1ncn2[C@@H]1O[C@H](CO)[C@@H](O)[C@H]1O: -4
2) Nc1nc(OCCc2ccccc2)nc2c1ncn2[C@@H]1O[C@H](CO)[C@@H](O)[C@H]1O: 71
3) CCOc1nc(N)c2ncn([C@@H]3O[C@H](CO)[C@@H](O)[C@H]3O)c2n1: 99
4) N=C(N)Nc1nc(OCCc2c[nH]c3ccccc23)nc2c1ncn2[C@@H]1O[C@H](CO)[C@@H](O)[C@H]1O: 58
5) Nc1nc(OCCC2CCCCC2)nc2c1ncn2[C@@H]1O[C@H](CO)[C@@H](O)[C@H]1O: 52
6) Nc1nc(OCCc2ccsc2)nc2c1ncn2[C@@H]1O[C@H](CO)[C@@H](O)[C@H]1O: 62
7) Nc1nc(OCCc2cc3ccccc3[nH]2)nc2c1ncn2[C@@H]1O[C@H](CO)[C@@H](O)[C@H]1O: 37
8) Nc1nc(OCCc2c[nH]c3ccc(F)cc23)nc2c1ncn2[C@@H]1O[C@H](CO)[C@@H](O)[C@H]1O: -1
9) Nc1nc(OCCCc2ccccc2)nc2c1ncn2[C@@H]1O[C@H](CO)[C@@H](O)[C@H]1O: 42
10) Nc1nc(OCCc2cc[nH]c2)nc2c1ncn2[C@@H]1O[C@H](CO)[C@@H](O)[C@H]1O: 75
11) Nc1nc(OCCc2cccc(F)c2)nc2c1ncn2[C@@H]1O[C@H](CO)[C@@H](O)[C@H]1O: 50
12) Nc1nc(OCCc2c[nH]c3cccc(Br)c23)nc2c1ncn2[C@@H]1O[C@H](CO)[C@@H](O)[C@H]1O: -5
13) CCNC(=O)[C@H]1O[C@@H](n2cnc3c(N)nc(OCCc4c[nH]c5ccccc45)nc32)[C@H](O)[C@@H]1O: 102
14) C[C@@H](CCOc1nc(N)c2ncn([C@@H]3O[C@H](CO)[C@@H](O)[C@H]3O)c2n1)c1ccccc1: 18
15) Nc1nc(OCCn2nnc3ccccc32)nc2c1ncn2[C@@H]1O[C@H](CO)[C@@H](O)[C@H]1O: 13
16) Nc1nc(OCCc2c[nH]c3ccc(O)cc23)nc2c1ncn2[C@@H]1O[C@H](CO)[C@@H](O)[C@H]1O: 24
17) COc1ccc2[nH]cc(CCOc3nc(N)c4ncn([C@@H]5O[C@H](CO)[C@@H](O)[C@H]5O)c4n3)c2c1: -3
18) Cc1ccc(S(=O)(=O)n2cc(CCOc3nc(N)c4ncn([C@@H]5O[C@H](CO)[C@@H](O)[C@H]5O)c4n3)c3cc(Br)ccc32)cc1: -1
19) Nc1nc(OCCc2c[nH]c3cc(Br)ccc23)nc2c1ncn2[C@@H]1O[C@H](CO)[C@@H](O)[C@H]1O: 20.2
20) Nc1nc(OCCCCc2ccccc2)nc2c1ncn2[C@@H]1O[C@H](CO)[C@@H](O)[C@H]1O: 37
21) Nc1nc(OCCc2ccc3ccccc3c2)nc2c1ncn2[C@@H]1O[C@H](CO)[C@@H](O)[C@H]1O: 45
